Parameter: Papp. Scope: all listed entries.
- Procedure summary: In situ single-pass intestinal perfusion (SPIP), saponins administrated in monomer forms
- Assay type: in vivo
- Condition details: male, Sprague-Dawley, rat, other: in situ single-pass intestinal perfusion, monomer form, duodenum, concentration equivalent to 2.5 mg·mL^−1 MDQ-TS, n = 5
Parameter: Papp (×10⁻⁶ cm/s)

# Molecule, Parameter, Units symbol, Recorded number
records = [
    ("C[C@@H]1CC[C@]2(C(=O)O)CC[C@]3(C)C(=CC[C@@H]4[C@@]5(C)CC[C@H](O)[C@@](C)(C(=O)O)[C@@H]5CC[C@]43C)[C@@H]2[C@]1(C)O [C1, ilexgenin A]", "Papp", "×10⁻⁶ cm/s", 55),
    ("CC1CCC2(C(=O)OC3OC(CO)C(O)C(O)C3O)CCC3(C)C(=CCC4C5(C)CCC(O)C(C)(C(=O)O)C5CCC43C)C2C1(C)O (centres unmarked) [C2, ilexsaponin A1]", "Papp", "×10⁻⁶ cm/s", 40),
]

---

- Procedure summary: In situ single-pass intestinal perfusion (SPIP), saponins administrated in monomer forms
- Format: in vivo
- Condition details: male, Sprague-Dawley, rat, other: in situ single-pass intestinal perfusion, administered in monomer forms, summary bound

# Compound, Papp
rows = [
    ("C[C@@H]1CC[C@]2(C(=O)O)CC[C@]3(C)C(=CC[C@@H]4[C@@]5(C)CC[C@H](O)[C@@](C)(C(=O)O)[C@@H]5CC[C@]43C)[C@@H]2[C@]1(C)O [C1, ilexgenin A]", "> 20 ×10⁻⁶ cm/s"),
    ("CC1CCC2(C(=O)OC3OC(CO)C(O)C(O)C3O)CCC3(C)C(=CCC4C5(C)CCC(O)C(C)(C(=O)O)C5CCC43C)C2C1(C)O (centres unmarked) [C2, ilexsaponin A1]", "> 20 ×10⁻⁶ cm/s"),
]

---

Parameter: decrease of absorption compared with non-Amantadine added group. Scope: all listed entries.
- Test system: rat duodenum
- Procedure summary: SPIP of MDQ-TS with or without amantadine (endocytosis inhibitor)
- Assay type: in vivo
- Condition details: MDQ-TS 2.5 mg/mL, amantadine 2.5 mmol·L^−1
Parameter: decrease of absorption compared with non-Amantadine added group (%)

# Molecule, Recorded number
records = [
    ("C[C@@H]1CC[C@]2(C(=O)O)CC[C@]3(C)C(=CC[C@@H]4[C@@]5(C)CC[C@H](O)[C@@](C)(C(=O)O)[C@@H]5CC[C@]43C)[C@@H]2[C@]1(C)O", 40),
    ("C[C@@H]1O[C@@H](O[C@H]2[C@H](O[C@H]3[C@H](O[C@H]4CC[C@]5(C)[C@H]6CC=C7[C@H]8[C@](C(=O)O)(CC[C@H](C)[C@@]8(C)O)CC[C@@]7(C)[C@]6(C)CC[C@H]5C4(C)C)OC[C@@H](O)[C@@H]3O)O[C@H](CO)[C@@H](O)[C@@H]2O)[C@H](O)[C@H](O)[C@H]1O", 31),
    ("C[C@@H]1O[C@@H](O[C@H]2[C@H](O[C@H]3[C@H](O[C@H]4CC[C@]5(C)[C@H]6CC=C7[C@H]8[C@](C(=O)O[C@@H]9O[C@H](CO)[C@@H](O)[C@H](O)[C@H]9O)(CC[C@H](C)[C@@]8(C)O)CC[C@@]7(C)[C@]6(C)CC[C@H]5C4(C)C)OC[C@@H](O)[C@@H]3O)O[C@H](CO)[C@@H](O)[C@@H]2O)[C@H](O)[C@H](O)[C@H]1O [DC2, ilexoside O]", 100),
    ("CC1CCC2(C(=O)OC3OC(CO)C(O)C(O)C3O)CCC3(C)C(=CCC4C5(C)CCC(O)C(C)(C(=O)O)C5CCC43C)C2C1(C)O (stereo not shown)", 71),
]
